Tested on: SK-MEL-28 melanoma
protocolText: NCI tumour cell line growth inhibition, 48 h

{"columns": ["molecule", "TGI"],
 "data": [
  ["C/C(=N/NC(=S)N1CCCCC1)c1ccccc1O", "> 31.6 µM"],
  ["CSC1=C(N)C(=O)c2[nH]cc(CO)c2C1=N", "0.618 µM"],
  ["O=S(=O)(c1ccc(NC2=NC(c3ccc(O)cc3)(c3ccccc3O)c3ccccc32)cc1)c1ccc(NC2=NC(c3ccc(O)cc3)(c3ccccc3O)c3ccccc32)cc1 (stereo not given)", "> 28 µM"],
  ["Cc1cn(C2CC3C(COCN3O)O2)c(=O)[nH]c1=O (stereo not given)", "> 100 µM"],
  ["O=C1CCCCCCCCCCC1CN1CCCC1 (stereo not given)", "55.6 µM"],
  ["CN(C)CCN1C(=O)c2c(c3c4ccccc4n4c3c3c2c2ccccc2n3C2CC(O)C(O)C4(C)O2)C1=O (stereo not given)", "10.4 µM"],
  ["O=C1CCCCC/C1=C\\c1ccc([N+](=O)[O-])cc1", "> 100 µM"],
  ["COc1cc2nc(N3CCCC3)nc(NCc3ccccc3)c2cc1OC", "3.19 µM"],
  ["CCOC(=O)CC[C@H](NC(=O)c1nc[nH]c1[N+](=O)[O-])C(=O)OCC", "> 100 µM"],
  ["CCNC(=S)N=Nc1c(O)[nH]c2ccc([N+](=O)[O-])cc12", "> 100 µM"],
  ["C=C1C(O)C2C(=C(CC)C13CC3)C(=O)C(C)(C)C2OC (stereo not given)", "> 100 µM"],
  ["O=S(=O)(/C=C/c1ccc(F)cc1)Cc1ccc(CS(=O)(=O)/C=C/c2ccc(F)cc2)cc1", "> 100 µM"],
  ["O=c1[nH]nc(-c2ccccc2)n1/N=C\\c1ccccc1", "> 100 µM"],
  ["CC(=O)OCC1OC(SC2=N/C(=C\\c3ccc(Br)s3)C(=O)N2CN2CCOCC2)C(OC(C)=O)C(OC(C)=O)C1OC(C)=O (stereo not given)", "32.9 µM"],
  ["CC1(C)C2CCC13C(=O)C1OC3(C2)C2C(=O)c3ccccc3C(=O)C12 (stereo not given)", "> 100 µM"],
  ["Cc1ccc(/C(O)=C/c2nc3ccccc3sc2=O)c(C)c1", "> 100 µM"],
  ["CN1CCN(C(=O)C(C)(C)c2ccc(C(=O)Nc3cn4cc(-c5ccncc5)ccc4n3)cc2)CC1", "6.47 µM"],
  ["CC(C)=NN/C(=N\\S(=O)(=O)c1ccc(Oc2cccc(Cl)c2C#N)cc1)Nc1ccc(Cl)cc1", "> 100 µM"],
  ["Cc1cc(C)nc(SC2=C(Nc3ccc(C)c(Cl)c3)C(=O)N(Cc3ccccc3)C2=O)n1", "> 160 µM"],
  ["CCNCCCn1c2c(c3ccc(Cl)cc3c1=O)C(=O)c1cc(OC)cnc1-2", "4.54 µM"],
  ["Cc1ccc(S(=O)(=O)c2c(COC(=O)c3cccc(C)c3)c(-c3ccccc3)nn2C)cc1", "> 100 µM"],
  ["O=[N+]([O-])c1ccc(-n2nnc(C3=NCCN3)c2-c2ccccc2)cc1", "> 100 µM"],
  ["CCCCC(=O)c1c(O)nc2sccn2c1=O", "> 10 µM"],
  ["NCCCC[C@@H]1NC(=O)[C@H]2CCCN2C(=O)[C@H](Cc2ccccc2)CNC(=O)[C@H](Cc2ccccc2)NC1=O", "> 37.5 µM"],
  ["O=C1/C(=C/c2ccccc2)CN(C(=O)CCN2CCOCC2)C/C1=C\\c1ccccc1", "3.41 µM"]
]}
